Provide the reported pIC50 of each item.
# Tested on: PRXF DU-145
# measurementNotes: In vitro activity against solid tumor cell lines (FACS analysis method a)
# Assay type: cell-based
# conditionDescription: Homo sapiens, Prostate
Please treat pIC50 as minus the base-10 logarithm of the molar concentration.

Problem: Hello, please tell me recorded pIC50 for this one: CN1CC(=O)N2Cc3c(c4ccccc4n3Cc3ccc(C(=O)NO)cc3)C(C2)C1=O (centres unmarked)
Result: 4.99

Problem: Hello, please tell me recorded pIC50 for this one: CN1C(=O)C2CN(Cc3c2c2ccccc2n3Cc2ccc(C(=O)NO)cc2)C1=O (centres unmarked)
Result: 5.63
